Assay: Cmax in F344/DuCrlCrlj rat at 100 mg/kg, po via gavage measured on day 28 post dose
Format: ADME, organism-based
Set-up: dose 100 mg/kg, route oral
Conditions: in vivo
measured-endpoint: Cmax (µg/mL)
Express your answer in µg/mL, writing the number without its unit.

Q: # lookup: Cmax of "Cc1cnc(Oc2ccc3nc(COc4cccc(C(=O)O)c4)n(C)c3c2)c(C)c1.Cl"
Ans: 92.8

###

Target: Peroxisome proliferator-activated receptor gamma (Homo sapiens) (UniProt P37231)
Sequence (whole entry): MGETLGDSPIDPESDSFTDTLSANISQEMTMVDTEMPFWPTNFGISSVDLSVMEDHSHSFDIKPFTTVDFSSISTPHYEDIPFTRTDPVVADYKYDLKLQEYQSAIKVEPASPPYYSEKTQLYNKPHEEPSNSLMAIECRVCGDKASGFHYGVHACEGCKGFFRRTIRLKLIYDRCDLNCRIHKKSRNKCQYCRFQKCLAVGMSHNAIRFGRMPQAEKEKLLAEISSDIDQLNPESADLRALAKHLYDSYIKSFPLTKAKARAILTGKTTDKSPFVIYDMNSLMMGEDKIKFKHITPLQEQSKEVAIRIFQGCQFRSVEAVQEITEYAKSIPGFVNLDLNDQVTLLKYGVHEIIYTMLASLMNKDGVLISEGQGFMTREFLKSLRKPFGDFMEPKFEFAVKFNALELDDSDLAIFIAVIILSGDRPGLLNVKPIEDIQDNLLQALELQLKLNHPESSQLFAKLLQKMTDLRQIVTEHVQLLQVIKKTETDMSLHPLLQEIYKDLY
Test: Agonist activity at recombinant human GAL4-DBD fused PPARgamma LBD expressed in COS7 cells at 10 uM after 24 hrs by luciferase reporter gene assay relative to rosiglitazone
Assay type: cell-based
Give Y when the value for Emax is at least 80%. Give N when it is less.

Q: Item "Cc1cnc(Oc2ccc3nc(COc4cccc(C(=O)O)c4)n(C)c3c2)c(F)c1" with Emax of 80% or above?
Ans: N

Q: Item "Cn1c(COc2cccc(C(=O)O)c2)nc2cnc(Oc3ccc(Cl)c(F)c3)cc21" with Emax of 80% or above?
Ans: N

Q: Item "Cn1c(COc2cccc(C(=O)O)c2)nc2ccc(Oc3ccc(F)cc3)nc21" with Emax of 80% or above?
Ans: N

Q: Item "Cn1c(COc2cccc(C(=O)O)c2)nc2ccc(Oc3ccc(Cl)cn3)cc21" with Emax of 80% or above?
Ans: N

Q: Item "Cl.Cl.Cn1c(COc2cccc(C(=O)O)c2)nc2ccc(Oc3ccccc3)nc21" with Emax of 80% or above?
Ans: N

Q: Item "Cn1c(COc2cccc(C(=O)O)c2)nc2ccc(Oc3ccc4c(c3)OCC4)nc21" with Emax of 80% or above?
Ans: Y

Q: Item "Cn1c(COc2cccc(C(=O)O)c2)nc2ccc(Oc3cccc(Cl)n3)cc21" with Emax of 80% or above?
Ans: N

Q: Item "Cc1cc(C)cc(Oc2ccc3nc(COc4cccc(C(=O)O)c4)n(C)c3n2)c1" with Emax of 80% or above?
Ans: Y

Q: Item "Cc1cc(Cl)cnc1Oc1ccc2nc(COc3cccc(C(=O)O)c3)n(C)c2c1" with Emax of 80% or above?
Ans: Y

Q: Item "Cc1ccc(Oc2ccc3nc(COc4cccc(C(=O)O)c4)n(C)c3n2)cc1C" with Emax of 80% or above?
Ans: N

Q: Item "Cc1ccc(Oc2ccc3nc(COc4cccc(C(=O)O)c4)n(C)c3n2)cc1" with Emax of 80% or above?
Ans: N

Q: Item "Cn1c(COc2cccc(C(=O)O)c2)nc2cnc(Oc3ccc4c(c3)CCC4)cc21" with Emax of 80% or above?
Ans: N

Q: Item "Cn1c(COc2cccc(C(=O)O)c2)nc2ccc(Oc3ccccn3)cc21" with Emax of 80% or above?
Ans: N

Q: Item "Cc1cc(F)cnc1Oc1ccc2nc(COc3cccc(C(=O)O)c3)n(C)c2c1" with Emax of 80% or above?
Ans: Y

Q: Item "Cn1c(COc2cccc(C(=O)O)c2)nc2cnc(Oc3ccc4c(c3)OCC4)cc21" with Emax of 80% or above?
Ans: N

Q: Item "Cn1c(COc2cccc(C(=O)O)c2)nc2ccc(Oc3cc(Cl)ccn3)cc21" with Emax of 80% or above?
Ans: Y

Q: Item "Cn1c(COc2cccc(C(=O)O)c2)nc2ccc(Oc3ncc(Cl)cc3Cl)cc21" with Emax of 80% or above?
Ans: N
